assayDetails: Lipophilicity, log D at pH 7.0
experimentalConditions: buffer
measuredAttribute: logD
Numbers only.

Consider the reported logD for these compounds:
INSERT INTO results (compound, val) VALUES
  ('CSc1ccc2c(c1)N(CCC1CCCCN1C)c1ccccc1S2 (stereo not drawn)', 3.83),
  ('CC(C)(C)c1ccc(C(O)CCCN2CCC(C(O)(c3ccccc3)c3ccccc3)CC2)cc1 (stereo not drawn)', 4.11),
  ('CN(C)CCCN1c2ccccc2Sc2ccc(Cl)cc21', 2.99),
  ('CCCc1nn(C)c2c(=O)[nH]c(-c3cc(S(=O)(=O)N4CCN(C)CC4)ccc3OCC)nc12', 2.29);

# batch: return logD for each of the 4 compounds below
1. O=C(CCCN1CCC(O)(c2ccc(Cl)cc2)CC1)c1ccc(F)cc1
2. O=C(CCCN1CC=C(n2c(=O)[nH]c3ccccc32)CC1)c1ccc(F)cc1
3. C[C@@H]1CN(c2c(F)c(N)c3c(=O)c(C(=O)O)cn(C4CC4)c3c2F)C[C@H](C)N1
4. COCC(=O)O[C@]1(CCN(C)CCCc2nc3ccccc3[nH]2)CCc2cc(F)ccc2[C@@H]1C(C)C

Output line:
[1.82, 2.25, -3.4, 1.96]
